Where do the numbers come from? From patent US8952024B2.

Test system: blackgrass (Alopecurus myosuroides)
MEASUREMENT_PROTOCOL: Test B pre-/postemergence plant response
Assay type: in vivo
TEST_SETTINGS: Postemergence, 125 g ai/ha; visual rating after 13 to 15 days, scale 0 (no effect) to 100 (complete control)
VALUE_TYPE: Plant response rating, Blackgrass
Give bare numbers.

Examples from the recorded data:
{"QUERY_SMILES": "Cc1cc(F)ccc1-n1c(-c2ccccc2)ncc(C(=O)C2=C(O)CCCC2=O)c1=O", "MEASURED_TARGET": "blackgrass (Alopecurus myosuroides)", "REPORTED": 20}
{"QUERY_SMILES": "O=C1CCCC(O)=C1C(=O)c1cnc(-c2ccccc2)n(-c2ccc(F)cc2)c1=O", "MEASURED_TARGET": "blackgrass (Alopecurus myosuroides)", "REPORTED": 40}
{"QUERY_SMILES": "O=C1CCCC(O)=C1C(=O)c1cnc(-c2cccc(Br)c2)n(-c2ccccc2)c1=O", "MEASURED_TARGET": "blackgrass (Alopecurus myosuroides)", "REPORTED": 0}
{"QUERY_SMILES": "O=C1CCCC(O)=C1C(=O)c1cnc(-c2cccc(Cl)c2)n(-c2ccccc2)c1=O", "MEASURED_TARGET": "blackgrass (Alopecurus myosuroides)", "REPORTED": 10}

I'd like to know its Plant response rating, Blackgrass. The compound in question is "CCCc1ncc(C(=O)C2=C(O)CCCC2=O)c(=O)n1-c1cccc(C)c1"
30

----------
System: corn (Zea mays)
MEASUREMENT_PROTOCOL: Test B pre-/postemergence plant response
Assay type: in vivo
TEST_SETTINGS: 31 g ai/ha, postemergence; scale 0 to 100, 0 is no effect, 100 is complete control
VALUE_TYPE: Plant response rating, Corn

{"COMPOUND": "O=C1CCCC(O)=C1C(=O)c1cnc(-c2cccs2)n(CC2CCCO2)c1=O (centres unmarked) [Compound 109]", "MEASURED_TARGET": "corn (Zea mays)", "Plant response rating, Corn": 0}
{"COMPOUND": "O=C1CCCC(O)=C1C(=O)c1cnc(-c2ccccc2)n(C2CC2)c1=O [Compound 90]", "MEASURED_TARGET": "corn (Zea mays)", "Plant response rating, Corn": 15}
{"COMPOUND": "O=C1CCCC(O)=C1C(=O)c1cnc(-c2ccsc2)n(CC2CCCO2)c1=O (centres unmarked) [Compound 98]", "MEASURED_TARGET": "corn (Zea mays)", "Plant response rating, Corn": 35}
{"COMPOUND": "CCCCc1ncc(C(=O)C2=C(O)CCCC2=O)c(=O)n1-c1ccccc1C [Compound 62]", "MEASURED_TARGET": "corn (Zea mays)", "Plant response rating, Corn": 70}

For every item below, please supply its Plant response rating, Corn.
1. COCCn1c(-c2ccco2)ncc(C(=O)C2=C(O)CCCC2=O)c1=O [Compound 111]
2. CCCn1c(-c2ccccc2)ncc(C(=O)C2=C(O)CCCC2=O)c1=O [Compound 50]
3. CCCn1c(-c2cccc(OC)c2)ncc(C(=O)C2=C(O)CCCC2=O)c1=O [Compound 100]
4. COCCOCCn1c(-c2ccccc2)ncc(C(=O)C2=C(O)CCCC2=O)c1=O [Compound 91]

1. 10
2. 5
3. 0
4. 25

----------
Task for the reader: assign each of the following molecules its reported Plant response rating, Crabgrass, Large.
System: large crabgrass (Digitaria sanguinalis)
MEASUREMENT_PROTOCOL: Test B pre-/postemergence plant response
Assay type: in vivo
TEST_SETTINGS: Postemergence, 250 g ai/ha; scale 0 to 100 (0 no effect, 100 complete control); 13 to 15 days

{"MOLECULE": "O=C1CCCC(O)=C1C(=O)c1cnc(-c2ccsc2)n(C2CCOCC2)c1=O [Compound 186]", "REPORTED": 95}

Okay, here is my list. What is Plant response rating, Crabgrass, Large for each of these?
1. O=C1CCCC(O)=C1C(=O)c1cnc(C2CC2)n(C2CCCCC2)c1=O [Compound 160]
2. CCc1cccc(-n2c(-c3ccccc3)ncc(C(=O)C3=C(O)CCCC3=O)c2=O)c1 [Compound 220]
3. CCCn1c(-c2cc(Cl)cc(Cl)c2)ncc(C(=O)C2=C(O)CCCC2=O)c1=O [Compound 173]

1: 95; 2: 90; 3: 100

----------
Test system: bermudagrass (Cynodon dactylon)
MEASUREMENT_PROTOCOL: Test B pre-/postemergence plant response
Type: in vivo
TEST_SETTINGS: 62 g ai/ha, postemergence; 0 is no effect, 100 is complete control; 13 to 15 days
Kindly state Bermudagrass plant response rating (0 to 100 scale) for each of the entries shown.
Numbers only.

Use the examples below as a reference point.
{"MOLECULE": "O=C1CCCC(O)=C1C(=O)c1cnc(-c2ccsc2)n(C2CCOCC2)c1=O", "REPORTED": 80}
{"MOLECULE": "COCCOCCn1c(-c2ccccc2)ncc(C(=O)C2=C(O)CCCC2=O)c1=O", "REPORTED": 95}
{"MOLECULE": "O=C1CCCC(O)=C1C(=O)c1cnc(-c2cccs2)n(CC2CCCO2)c1=O (stereo not shown)", "REPORTED": 85}
{"MOLECULE": "CCCCn1c(CCC)ncc(C(=O)C2=C(O)CCCC2=O)c1=O", "REPORTED": 98}
{"MOLECULE": "COCCCn1c(-c2cccc(F)c2)ncc(C(=O)C2=C(O)CCCC2=O)c1=O", "REPORTED": 85}

Hey, quick one: what's Bermudagrass plant response rating (0 to 100 scale) for each of these?
1. O=C1CCCC(O)=C1C(=O)c1cnc(-c2ccccc2)n(C2CCOCC2)c1=O
2. O=C1CCCC(O)=C1C(=O)c1cnc(-c2cccc(Br)c2)n(-c2ccccc2)c1=O

1: 80; 2: 98

----------
System: yellow nutsedge (Cyperus esculentus)
MEASUREMENT_PROTOCOL: Test B pre-/postemergence plant response
Assay type: in vivo
TEST_SETTINGS: 31 g ai/ha, postemergence; scale 0 to 100, 0 is no effect, 100 is complete control
VALUE_TYPE: Plant response rating, Nutsedge, Yellow
One number for each entry.

Use these answered entries as a reference point.
{"COMPOUND": "CCOCCn1c(-c2ccccc2)ncc(C(=O)C2=C(O)CCCC2=O)c1=O [Compound 96]", "MEASURED_TARGET": "yellow nutsedge (Cyperus esculentus)", "REPORTED": 70}
{"COMPOUND": "CCCn1c(-c2ccccc2)ncc(C(=O)C2=C(O)CCCC2=O)c1=O [Compound 50]", "MEASURED_TARGET": "yellow nutsedge (Cyperus esculentus)", "REPORTED": 70}
{"COMPOUND": "O=C1CCCC(O)=C1C(=O)c1cnc(-c2cccc(Br)c2)n(-c2ccccc2)c1=O [Compound 69]", "MEASURED_TARGET": "yellow nutsedge (Cyperus esculentus)", "REPORTED": 5}
{"COMPOUND": "O=C1CCCC(O)=C1C(=O)c1cnc(-c2ccccc2)n(C2CC2)c1=O [Compound 90]", "MEASURED_TARGET": "yellow nutsedge (Cyperus esculentus)", "REPORTED": 60}
{"COMPOUND": "CCCc1ncc(C(=O)C2=C(O)CCCC2=O)c(=O)n1CCC [Compound 72]", "MEASURED_TARGET": "yellow nutsedge (Cyperus esculentus)", "REPORTED": 35}

Pending compound:
# lookup: Plant response rating, Nutsedge, Yellow of CC(C)Cc1ncc(C(=O)C2=C(O)CCCC2=O)c(=O)n1-c1ccccc1 [Compound 68]
0

----------
System: Italian ryegrass (Lolium multiflorum)
MEASUREMENT_PROTOCOL: Test B pre-/postemergence plant response
Assay type: in vivo
TEST_SETTINGS: Postemergence, 62 g ai/ha; scale 0 (no effect) to 100 (complete control); 13 to 15 days
Give Plant response rating, Ryegrass, Italian for every item shown.

Known results for compounds:
{"QUERY_SMILES": "O=C1CCCC(O)=C1C(=O)c1cnc(-c2cccc(Cl)c2)n(-c2ccccc2)c1=O", "Plant response rating, Ryegrass, Italian": 10}
{"QUERY_SMILES": "Cc1cccc(-n2c(-c3ccccc3)ncc(C(=O)C3=C(O)CCCC3=O)c2=O)c1F", "Plant response rating, Ryegrass, Italian": 0}
{"QUERY_SMILES": "CCCCc1ncc(C(=O)C2=C(O)CCCC2=O)c(=O)n1-c1ccccc1C", "Plant response rating, Ryegrass, Italian": 5}
{"QUERY_SMILES": "Cc1cc(F)ccc1-n1c(-c2ccccc2)ncc(C(=O)C2=C(O)CCCC2=O)c1=O", "Plant response rating, Ryegrass, Italian": 5}

Sample "Cc1ccc(Cl)cc1-n1c(-c2ccccc2)ncc(C(=O)C2=C(O)CCCC2=O)c1=O" — what was its Plant response rating, Ryegrass, Italian?
45

----------
Test system: downy bromegrass (Bromus tectorum)
MEASUREMENT_PROTOCOL: Test B pre-/postemergence plant response
Type: in vivo
TEST_SETTINGS: 31 g ai/ha, postemergence; scale 0 to 100, 0 is no effect, 100 is complete control
I'd be grateful if you could share measured Plant response rating, Bromegrass, Downy for these entries.
One number for each entry.

Go through the list and state Plant response rating, Bromegrass, Downy for each entry.
1. CCn1c(-c2ccccc2)ncc(C(=O)C2=C(O)CCCC2=O)c1=O
2. COCCn1c(-c2cccs2)ncc(C(=O)C2=C(O)CCCC2=O)c1=O

[0, 0]

Each molecule below has a recorded value; state its Plant response rating, Bromegrass, Downy.
1. CCCc1ncc(C(=O)C2=C(O)CCCC2=O)c(=O)n1CCC
2. O=C1CCCC(O)=C1C(=O)c1cnc(-c2cccc(Br)c2)n(-c2ccccc2)c1=O
3. CC(C)Cc1ncc(C(=O)C2=C(O)CCCC2=O)c(=O)n1-c1ccccc1
4. COCCOCCn1c(-c2ccccc2)ncc(C(=O)C2=C(O)CCCC2=O)c1=O
5. CCCn1c(-c2cccc(OC)c2)ncc(C(=O)C2=C(O)CCCC2=O)c1=O
6. CCCCc1ncc(C(=O)C2=C(O)CCCC2=O)c(=O)n1-c1ccccc1C
7. CCCCCCn1c(-c2ccccc2)ncc(C(=O)C2=C(O)CCCC2=O)c1=O

1: 0; 2: 40; 3: 5; 4: 0; 5: 5; 6: 30; 7: 0
